tested on: MST1; construct: gene STK4; details: concentration: 1 μM, replicates: in singlicate; n = 1;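 note: KINOMEscan kinase panel screen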
REPORTED_METRIC: %Inh (%)
# unit: % | format: bare number

> print(dat)
                                   molecule  val
1  CS(=O)(=O)c1cccc(CNc2nc(Nc3ccc4c(c3)CCC(=O)N4)ncc2C(F)(F)F)c1    0
2  CC(C)(C)c1ccc(C(=O)Nc2cn3cc(-n4ccnc4)ccc3n2)cc1    7

Continue with the molecule presented below.
query: Any idea what %Inh was measured for CN(c1ccc2c(c1)nc(NCc1ccccc1)n2C)c1ccnc(Nc2ccc(CS(C)(=O)=O)cc2)n1.Cl [GW811603] ?
result: 24
